Target: T1, human monomeric His tagged CD33 protein (human, UniProt P20138 18-259)
T1 construct: also called hCD33-His
T1 sequence (P20138 18-259 limits assumed): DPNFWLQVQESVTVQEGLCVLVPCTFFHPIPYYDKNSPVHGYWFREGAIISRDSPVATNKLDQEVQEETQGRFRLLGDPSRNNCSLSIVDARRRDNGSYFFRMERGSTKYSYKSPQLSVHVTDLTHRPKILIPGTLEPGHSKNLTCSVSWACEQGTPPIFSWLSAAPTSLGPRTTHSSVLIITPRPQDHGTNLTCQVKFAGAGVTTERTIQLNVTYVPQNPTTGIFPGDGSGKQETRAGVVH
Assay: ForteBio BLI or MSD-SET, IgG, monomeric antigen;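 further: BLI: antibodies captured on AHQ sensors, 100 nM antigen association 5 min, dissociation 5 min, 1:1 fit. MSD-SET: antigen fixed at 50 pM, antibody titrated, quadratic fit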
pKd: −log10 of the molar value.
Reported metric: pKd

- Binder: "C-23 (antibody, V domains shown, human IgG1) VH: QVQLQESGPGLVKPSETLSLTCAVSGYSISSGYYWGWIRQPPGKGLEWIGTIYHSGSTYYNPSLKSRVTISVDTSKNQFSLKLSSVTAADTAVYYCAREVGVVGALPYFDYWGQGTLVTVSS VL: DIQMTQSPSSLSASVGDRVTITCRASQSISSYLNWYQQKPGKAPKLLIYGASSLQSGVPSRFSGSGSGTDFTLTISSLQPEDFATYYCQQASSSPPTFGGGTKVEIK"
  Numeric readout: 7.68
- Binder: "C-10 (antibody, V domains shown, human IgG1) VH: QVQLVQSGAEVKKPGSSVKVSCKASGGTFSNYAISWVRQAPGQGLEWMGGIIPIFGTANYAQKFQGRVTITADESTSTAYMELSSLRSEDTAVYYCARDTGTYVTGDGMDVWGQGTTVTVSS VL: EIVMTQSPATLSVSPGERATLSCRASQSVSSNLAWYQQKPGQAPRLLIYGASTRATGIPARFSGSGSGTEFTLTISSLQSEDFAVYYCQQYVNLPITFGGGTKVEIK"
  Numeric readout: 8.20
